# protocol: oral bioavailability of encapsulated microparticulate (100 mg) enteric coated formulation (Example 3)
# Parameters: species or system cynomolgus monkeys
# conditions: male, cynomolgus monkey, in vivo, po, 100 mg, Tmax
readoutType: Tmax (h)
Write it as a number; the unit h goes unstated.

Dear colleague, I am looking for the recorded Tmax of the following compound: CN(C)c1cc(NC(=O)CNC(C)(C)C)c(O)c2c1C[C@H]1C[C@H]3[C@H](N(C)C)C(O)=C(C(N)=O)C(=O)[C@@]3(O)C(O)=C1C2=O
2

---

# protocol: oral bioavailability of encapsulated microparticulate (100 mg) enteric coated formulation (Example 3)
# Parameters: species or system cynomolgus monkeys
# conditions: male, cynomolgus monkey, in vivo, po, 100 mg, T1/2
readoutType: half-life (h)
Write it as a number; the unit h goes unstated.

Dear colleague, I am looking for the recorded half-life of the following compound: CN(C)c1cc(NC(=O)CNC(C)(C)C)c(O)c2c1C[C@H]1C[C@H]3[C@H](N(C)C)C(O)=C(C(N)=O)C(=O)[C@@]3(O)C(O)=C1C2=O
9.48

---

# protocol: pharmacokinetics after single oral (gavage) and intravenous dose in 0.9% saline (Example 2)
# Design: species or system cynomolgus monkeys
# conditions: male, cynomolgus monkey, in vivo, iv, 5 mg/kg, t1/2
readoutType: half-life

Dear colleague, I am looking for the recorded half-life of the following compound: CN(C)c1cc(NC(=O)CNC(C)(C)C)c(O)c2c1C[C@H]1C[C@H]3[C@H](N(C)C)C(O)=C(C(N)=O)C(=O)[C@@]3(O)C(O)=C1C2=O
11.4 to 19.1 h

---

# protocol: oral bioavailability of encapsulated microparticulate (100 mg) enteric coated formulation (Example 3)
# Design: species or system cynomolgus monkeys
# conditions: male, cynomolgus monkey, in vivo, po, 100 mg, T1/2, Mean
# Protocol: Each 100 mg capsule contained 478.5 mg enteric coated granules. […] The monkeys were housed in Bioresources vivarium with free access to water and food. The four monkeys received the oral formulation described above (1×100 mg multi-particulate capsule). The formulation was administered with 10 mL water. All monkeys were fasted overnight prior to dosing (with free access to water) and were fed 4 hours after dose administration. […]
readoutType: half-life (h)
Write it as a number; the unit h goes unstated.

Dear colleague, I am looking for the recorded half-life of the following compound: CN(C)c1cc(NC(=O)CNC(C)(C)C)c(O)c2c1C[C@H]1C[C@H]3[C@H](N(C)C)C(O)=C(C(N)=O)C(=O)[C@@]3(O)C(O)=C1C2=O
12.1

---

# protocol: pharmacokinetics after single oral (gavage) and intravenous dose in 0.9% saline (Example 2)
# Parameters: species or system cynomolgus monkeys
# conditions: male, cynomolgus monkey, in vivo, po, 15 mg/kg, Plasma Concentrations, Mean
readoutType: concentration at 24 h (ng/mL)
Write it as a number; the unit ng/mL goes unstated.

Dear colleague, I am looking for the recorded concentration at 24 h of the following compound: CN(C)c1cc(NC(=O)CNC(C)(C)C)c(O)c2c1C[C@H]1C[C@H]3[C@H](N(C)C)C(O)=C(C(N)=O)C(=O)[C@@]3(O)C(O)=C1C2=O [Tigecycline]
0

---

# protocol: pharmacokinetics after single oral (gavage) and intravenous dose in 0.9% saline (Example 2)
# Parameters: species or system cynomolgus monkeys
# conditions: male, cynomolgus, cynomolgus monkey, in vivo, po, 15 mg/kg, Cmax
readoutType: Cmax (ng/mL)
Write it as a number; the unit ng/mL goes unstated.

Dear colleague, I am looking for the recorded Cmax of the following compound: CN(C)c1cc(NC(=O)CNC(C)(C)C)c(O)c2c1C[C@H]1C[C@H]3[C@H](N(C)C)C(O)=C(C(N)=O)C(=O)[C@@]3(O)C(O)=C1C2=O
178
